Cited source for all entries: patent US7700657B2

- target_entity: human VDR receptor (Homo sapiens, UniProt P11473)
- Construct: expressed in transfected cells; host or cells: HeLa
- Sequence (P11473 whole entry): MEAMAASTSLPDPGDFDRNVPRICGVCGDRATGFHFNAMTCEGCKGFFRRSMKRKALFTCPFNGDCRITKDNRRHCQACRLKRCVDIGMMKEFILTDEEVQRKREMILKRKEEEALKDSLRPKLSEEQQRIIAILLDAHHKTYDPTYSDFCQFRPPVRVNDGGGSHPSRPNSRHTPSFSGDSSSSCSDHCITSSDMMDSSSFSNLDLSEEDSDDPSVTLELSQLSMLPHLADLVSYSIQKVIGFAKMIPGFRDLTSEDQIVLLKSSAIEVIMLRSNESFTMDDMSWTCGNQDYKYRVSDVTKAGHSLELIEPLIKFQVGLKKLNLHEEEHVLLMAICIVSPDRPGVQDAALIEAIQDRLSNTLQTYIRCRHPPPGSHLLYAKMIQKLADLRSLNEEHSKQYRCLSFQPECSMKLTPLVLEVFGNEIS
- protocol_summary: Transactivation potential: VDR agonist activity, HeLa cotransfection with p240Hase-CAT reporter
- Type: cell-based
- test_parameters: dose giving 50% of maximum activity, HeLa cells, 18 hours treatment
Note to self: AC50 under 0.02 µM means T, ties and anything higher get F.

smiles_repr	class_label
CC/C(=C\C=C\C(O)(C(F)(F)F)C(F)(F)F)c1cccc(CCc2ccc(CO)c(CO)c2)c1	T
CC/C(=C\C#CC(O)(C(F)(F)F)C(F)(F)F)c1cccc(CCc2ccc(CO)c(CO)c2)c1	T
CC/C(=C\C=C\C(O)(C(F)(F)F)C(F)(F)F)c1cccc(OCc2ccc(CO)c(CO)c2)c1	T
CC/C(=C\C=C\C(O)(CC)CC)c1cccc(CCc2ccc(CO)c(CO)c2)c1	F
CC/C(=C\C#CC(O)(C(F)(F)F)C(F)(F)F)c1cccc(OCc2ccc(CO)c(CO)c2)c1	F
